Recorded values, source PubChem BioAssay AID1996.

Conditions: buffer; pH 7.4; 200.0 µM
Readout kind: solubility kinetic (µg/mL)
Numeric answer only, unit µg/mL assumed.

>  <Compound>
COC(=O)c1sccc1NS(=O)(=O)c1ccccc1

>  <solubility kinetic (µg/mL)>
40.5

$$$$

Challenge: For the compound O=c1nc(SCc2ccc(Cl)cc2)nc(-c2ccccc2)[nH]1 , what solubility kinetic is on record?
Response given: 4.5

Challenge: If you can, please state the reported solubility kinetic value of O=C(/C=C/c1ccc([N+](=O)[O-])cc1)NCCOc1ccc(F)cc1 .
Response given: 4

Challenge: Which solubility kinetic is listed for CCOC(=O)C(=CNc1cc(C)ccc1-n1cccc1)C(=O)OCC ?
Response given: 0.7
